experiment: protein stability index of a GFP-peptide fusion (GPS, HEK-293T) (PSI 1-6); higher = more stable; conditions: treatment: MLN4924 1 uM, 8 h; c terminus: native;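 further: 24-mer peptide tiles fused after GFP, lentivirally expressed, FACS-sorted into six equal bins by GFP/DsRed ratio, decoded by Illumina sequencing, PSI is the read-weighted mean bin number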
Property measured: protein stability index
Numbers only.

Guide cases for protein stability index, answers given:
[
  {
    "Query sequence": "MAFFLCLGLALGAVFSFLFRAIV [SLC29A1]",
    "Recorded value": 4.14
  },
  {
    "Query sequence": "ASSPGNPTALANGTVQAPKQKGD [LPCAT4]",
    "Recorded value": 5.22
  },
  {
    "Query sequence": "IITRHNLTYEFLQARLRQHYQTI [CLCN6]",
    "Recorded value": 2.69
  },
  {
    "Query sequence": "GGMALGVAGLAGLIGLAVSKSKS [FIS1]",
    "Recorded value": 1.78
  },
  {
    "Query sequence": "CLHMFLQDEIIDKSYTPSKIRHA [SNX3]",
    "Recorded value": 2.77
  },
  {
    "Query sequence": "NPALQLILTRTDKTLNKKLGQNK [TOR1AIP2]",
    "Recorded value": 3.89
  }
]

According to the records, this sequence WTNRLCHQEMGSKKTVTQEDRGW [SPAG8] displays protein stability index of 2.79

----------
What protein stability index was measured for each of the following?
experiment: protein stability index of a GFP-peptide fusion (GPS, HEK-293T) (PSI 1-6); higher = more stable; settings: treatment: DMSO; c terminus: a fixed tail appended

[
  {
    "Query sequence": "SDDSDEDEPCAISGKWTFQRDSKR [DLC1]",
    "Property measured": "protein stability index",
    "Recorded value": 5
  },
  {
    "Query sequence": "FLHVRKATRAMGLLNTLSLAFVGG [TMEM175]",
    "Property measured": "protein stability index",
    "Recorded value": 2.16
  },
  {
    "Query sequence": "PELMEHTEAESEQEGSSGMELSWG [TEX19]",
    "Property measured": "protein stability index",
    "Recorded value": 5.4
  },
  {
    "Query sequence": "PAGCMYIHGGVVNIHENKRTGSLF [KLHDC10]",
    "Property measured": "protein stability index",
    "Recorded value": 2.52
  },
  {
    "Query sequence": "LLWAKFTNSDTPTSFNHMDSDKLS [TOR1AIP2]",
    "Property measured": "protein stability index",
    "Recorded value": 2.45
  },
  {
    "Query sequence": "DILEEEKIYAYPSNITSETGFRTI [TMEM192]",
    "Property measured": "protein stability index",
    "Recorded value": 3.04
  }
]

Kindly give each listed record's protein stability index.
1. AFQNDVYEWARDHRAHHKFSETHA [SCD]
2. NYGADTNTRNYEGQTPLAVSISIS [ASB7]
3. VSGSHFVGVDGVRAFLQTYSHEVS [PCDHGA10]
4. IPPMAQPGLPPVPGAPGMPPGIPP [ZNF207]
5. QGVEGDHCVTSDPATSPLVLAIPR [TRIM35]
6. NKCSVYPLTFDKNENMAAKKKSVA [GNB5]
7. LYSMECAFHPLFSLTSGACRLDYR [TCF25]

Output:
1: 2.65; 2: 2.65; 3: 2.49; 4: 4.29; 5: 4.43; 6: 4.09; 7: 2.25
